The reader will find reported % of Wild-Type Signal values listed item by item below.
measured target: biotinylated Gβ1γ2 mutant Trp332Ala (rat) (UniProt P54311)
Sequence (P54311 whole entry W332A, chain 1 of 2): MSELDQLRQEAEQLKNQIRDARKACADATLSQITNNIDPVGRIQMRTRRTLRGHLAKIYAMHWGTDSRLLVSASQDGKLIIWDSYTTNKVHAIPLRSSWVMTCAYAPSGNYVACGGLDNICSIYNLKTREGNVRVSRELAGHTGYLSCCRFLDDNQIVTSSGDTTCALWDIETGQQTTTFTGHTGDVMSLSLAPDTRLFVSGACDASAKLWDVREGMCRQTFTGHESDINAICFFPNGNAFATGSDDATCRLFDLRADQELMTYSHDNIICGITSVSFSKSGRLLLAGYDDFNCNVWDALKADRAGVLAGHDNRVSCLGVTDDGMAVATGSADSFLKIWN
Sequence (P63212 2-68, chain 2 of 2, further chain): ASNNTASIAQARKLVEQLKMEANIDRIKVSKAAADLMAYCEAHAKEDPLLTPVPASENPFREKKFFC
procedure details: phage ELISA, % of wild-type b-βγ
Express the result in % but write the number alone.

[[record]]
binder = "WCPPKLEQWYDGCA (Group IV) [phage C2 (WCPPKLEQWYDGCA)]"
recorded_metric = "% of Wild-Type Signal"
quantitative_readout = 4.7


I am curious: what % of Wild-Type Signal value has been reported for SCKRTKAQILLAPCT (Group I; also called Cl) [phage C1 (SCKRTKAQILLAPCT)] ? -0.3

I am curious: what % of Wild-Type Signal value has been reported for SIGKALFILGYPDYD [phage 3.14 (SIGKALFILGYPDYD)] ? 7.1

I am curious: what % of Wild-Type Signal value has been reported for WCPPKAMTQLGIKAC (Group II) [phage C14 (WCPPKAMTQLGIKAC)] ? 1.6

I am curious: what % of Wild-Type Signal value has been reported for LCSKAYLLLGQTC (Group I) [phage 2F (LCSKAYLLLGQTC)] ? -1.5

I am curious: what % of Wild-Type Signal value has been reported for SCGHGLKVQSTIGACA (Group II) [phage 3C (SCGHGLKVQSTIGACA)] ? -0.3

I am curious: what % of Wild-Type Signal value has been reported for SCEKRYGIEFCT [phage C4 (…)] ? 1.7

I am curious: what % of Wild-Type Signal value has been reported for SCEKRLGVRSCT (Group III) [phage C5 (SCEKRLGVRSCT)] ? 3.2
